- testedTarget: Glutamate receptor ionotropic, NMDA 1 (Rattus norvegicus) (UniProt P35439)
- experimentalProtocol: Percent inhibition of [3H]- 5,7- dichloro -kynurenic acid binding to glycine binding site of NMDA receptor at 10 ng/mL
t means recorded inhibition is 80% or above; f means it is below 80%.

| molecule | categoryLabel |
| --- | --- |
| Nc1ccc(NC(=O)CC2CCc3cc(Br)cc4[nH]c(=O)c(=O)n2c34)cc1 (stereo not given) | f |
| O=C(CC1CCc2cc(I)cc3[nH]c(=O)c(=O)n1c23)Nc1ccccc1 (stereo not given) | f |
| O=C(CC1CCc2cc(Br)cc3[nH]c(=O)c(=O)n1c23)Nc1ccc(C(F)(F)F)cc1 (stereo not given) | f |
| Cc1ccc(NC(=O)CC2CCc3cc(Br)cc4[nH]c(=O)c(=O)n2c34)cc1 (stereo not given) | t |
| O=C(CC1CCc2cc(Br)cc3[nH]c(=O)c(=O)n1c23)Nc1ccccc1 (stereo not given) | t |
| O=C(O)CC1CCc2cc(Br)cc3[nH]c(=O)c(=O)n1c23 (stereo not given) | f |
| COc1ccc(NC(=O)CC2CCc3cc(Br)cc4[nH]c(=O)c(=O)n2c34)cc1 (stereo not given) | f |
| O=C(O)CC1CCc2cc(I)cc3[nH]c(=O)c(=O)n1c23 (stereo not given) | f |
| O=C(O)CC1CCc2cc(Cl)cc3[nH]c(=O)c(=O)n1c23 (stereo not given) | t |

* * *

- testedTarget: Glutamate receptor ionotropic, NMDA 1 (Rattus norvegicus, UniProt P35439)
- experimentalProtocol: Affinity for the glycine binding site of the NMDA receptor using [3H]- 5,7- dichloro -kynurenic acid as radio-ligand
Field 'label' (enum: true / false). Set to true when Ki is strictly under 5 nM; else false.

| compound | testedTarget | categoryLabel |
| --- | --- | --- |
| O=C(CC1CCc2cc(Br)cc3[nH]c(=O)c(=O)n1c23)Nc1ccccc1 (stereo not drawn) | Glutamate receptor ionotropic, NMDA 1 (Rattus norvegicus, UniProt P35439) | true |
| O=C(O)CC1CCc2cc(Br)cc3[nH]c(=O)c(=O)n1c23 (stereo not drawn) | Glutamate receptor ionotropic, NMDA 1 (Rattus norvegicus, UniProt P35439) | false |
| C[C@H]1Cc2cc(Cl)cc3[nH]c(=O)c(=O)n(c23)C1CC(=O)Nc1ccccc1 (stereo partly drawn) | Glutamate receptor ionotropic, NMDA 1 (Rattus norvegicus, UniProt P35439) | true |
| O=C(CC1CCc2cc(I)cc3[nH]c(=O)c(=O)n1c23)Nc1ccccc1 (stereo not drawn) | Glutamate receptor ionotropic, NMDA 1 (Rattus norvegicus, UniProt P35439) | false |
| O=C(O)CC1CCc2cc(I)cc3[nH]c(=O)c(=O)n1c23 (stereo not drawn) | Glutamate receptor ionotropic, NMDA 1 (Rattus norvegicus, UniProt P35439) | false |
| O=C(CC1CCc2cc(Cl)cc3[nH]c(=O)c(=O)n1c23)Nc1ccccc1 (stereo not drawn) | Glutamate receptor ionotropic, NMDA 1 (Rattus norvegicus, UniProt P35439) | false |
| C[C@H]1Cc2cc(Cl)cc3[nH]c(=O)c(=O)n(c23)C1CC(=O)O (stereo partly drawn) | Glutamate receptor ionotropic, NMDA 1 (Rattus norvegicus, UniProt P35439) | true |

* * *

- testedTarget: Glutamate receptor ionotropic, NMDA 1 (Rattus norvegicus) (UniProt P35439)
- experimentalProtocol: Percent inhibition of [3H]- 5,7- dichloro -kynurenic acid binding to glycine binding site of NMDA receptor at 10 ng/mL

| molecule | inhibition, % |
| --- | --- |
| CC(=O)Nc1ccc(NC(=O)CC2CCc3cc(Br)cc4[nH]c(=O)c(=O)n2c34)cc1 (stereo not drawn) | 73 |
| O=C(CC1CCc2cc(Br)cc3[nH]c(=O)c(=O)n1c23)NC1CCCCC1 (stereo not drawn) | 23.8 |
| NC(=O)CC1CCc2cc(Br)cc3[nH]c(=O)c(=O)n1c23 (stereo not drawn) | 28.9 |

* * *

- testedTarget: Glutamate receptor ionotropic, NMDA 1 (Rattus norvegicus) (UniProt P35439)
- experimentalProtocol: Percent inhibition of binding affinity for the glycine binding site of the NMDA receptor using [3H]5,7- dichloro -kynurenic acid at a concentration of 10 ng/mL
measuredAttribute: inhibition (%)

| compound | number |
| --- | --- |
| O=C(CC1CCc2cc(Br)cc3[nH]c(=O)c(=O)n1c23)Nc1ccc([N+](=O)[O-])cc1 (centres undefined) | 21.5 |
| N#Cc1ccc(NC(=O)CC2CCc3cc(Br)cc4[nH]c(=O)c(=O)n2c34)cc1 (centres undefined) | 3.8 |
| O=C(CC1CCc2cccc3[nH]c(=O)c(=O)n1c23)Nc1ccccc1 (centres undefined) | 52.7 |
| O=C(O)CC1CCc2cccc3[nH]c(=O)c(=O)n1c23 (centres undefined) | 30.3 |
